PROCEDURE_SUMMARY: Stability of analytes in dog plasma (QC samples)
Assay type: in vitro ADME
SETTINGS: n = 3, low QC: nominal 4 ng/mL baicalin, 20 ursodeoxycholic acid, 2 chenodeoxycholic acid and chlorogenic acid
READOUT: Long-term stability (30 days at – 80 °C) Mean ± S.D. concentration (ng/mL)

Study these solved cases before continuing.
| COMPOUND | OBSERVED_MEASUREMENT |
| --- | --- |
| C[C@H](CCC(=O)O)[C@H]1CC[C@H]2[C@@H]3[C@H](O)C[C@@H]4C[C@H](O)CC[C@]4(C)[C@H]3CC[C@]12C [Chenodeoxycholic acid, chenodeoxycholic acid] | 1.92 |
| O=C(O)[C@H]1O[C@@H](Oc2cc3oc(-c4ccccc4)cc(=O)c3c(O)c2O)[C@H](O)[C@@H](O)[C@@H]1O [Baicalin, baicalin] | 3.50 |

a = O=C(/C=C/c1ccc(O)c(O)c1)O[C@@H]1C[C@](O)(C(=O)O)C[C@@H](O)[C@H]1O [Chlorogenic acid, chlorogenic acid]
b = C[C@H](CCC(=O)O)[C@H]1CC[C@H]2[C@@H]3[C@@H](O)C[C@@H]4C[C@H](O)CC[C@]4(C)[C@H]3CC[C@]12C [Ursodeoxycholic acid, ursodeoxycholic acid]
### Prompt For the pair a and b , which member has the lower Long-term stability (30 days at – 80 °C) Mean ± S.D. concentration number? Answer with the label corresponding to your selection.
### Response a
(a: 1.73 ng/mL, b: 18.77 ng/mL)
